molecular target: Melanocortin receptor 4 (Homo sapiens, UniProt P32245); format: cell membranes, HEK293, Membrane; details: hek293; also: in other assays of this panel Not Active means under 50% inhibition at 10 µM
Sequence (P32245 whole entry): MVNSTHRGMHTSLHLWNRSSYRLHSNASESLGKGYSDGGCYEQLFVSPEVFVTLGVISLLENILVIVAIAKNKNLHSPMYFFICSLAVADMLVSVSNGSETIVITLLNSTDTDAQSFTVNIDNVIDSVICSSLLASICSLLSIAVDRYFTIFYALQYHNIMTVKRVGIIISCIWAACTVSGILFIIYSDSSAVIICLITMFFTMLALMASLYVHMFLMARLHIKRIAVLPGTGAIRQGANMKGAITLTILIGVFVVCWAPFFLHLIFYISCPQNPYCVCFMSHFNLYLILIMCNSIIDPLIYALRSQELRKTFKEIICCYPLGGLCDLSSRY
Property: IC50

# Compound, Target or test system, Result
data = [
    ("CN(C)CCCN1c2ccccc2Sc2ccccc21", "Melanocortin receptor 4 (Homo sapiens, UniProt P32245)", "Not Active"),
    ("CCOc1ccc(NC(C)=O)cc1", "Melanocortin receptor 4 (Homo sapiens, UniProt P32245)", "Not Active"),
    ("C[C@H](CS)C(=O)N1CCC[C@H]1C(=O)O", "Melanocortin receptor 4 (Homo sapiens, UniProt P32245)", "Not Active"),
    ("Cc1cc(C(C#N)c2ccc(Cl)cc2)c(Cl)cc1NC(=O)c1cc(I)cc(I)c1O (stereo not given)", "Melanocortin receptor 4 (Homo sapiens, UniProt P32245)", "Not Active"),
    ("CNCCCN1c2ccccc2CCc2ccccc21", "Melanocortin receptor 4 (Homo sapiens, UniProt P32245)", "Not Active"),
    ("CC(C)[C@H]1C(=O)N2CCC[C@H]2[C@]2(O)O[C@](NC(=O)[C@@H]3C=C4c5cccc6[nH]cc(c56)C[C@H]4N(C)C3)(C(C)C)C(=O)N12", "Melanocortin receptor 4 (Homo sapiens, UniProt P32245)", "Not Active"),
    ("C[C@@H]1CN(c2c(F)c(N)c3c(=O)c(C(=O)O)cn(C4CC4)c3c2F)C[C@H](C)N1", "Melanocortin receptor 4 (Homo sapiens, UniProt P32245)", "Not Active"),
    ("Cc1ccc(-c2cc(C(F)(F)F)nn2-c2ccc(S(N)(=O)=O)cc2)cc1", "Melanocortin receptor 4 (Homo sapiens, UniProt P32245)", "Not Active"),
]

Qu. Please look up its IC50: Clc1cccc(Cl)c1NC1=NCCN1
Ans. Not Active

Qu. Please look up its IC50: Cc1cccc(N(C)C(=S)Oc2ccc3ccccc3c2)c1 [TOLNAFTATE]
Ans. Not Active

###

Molecular target: Muscarinic acetylcholine receptor M5 (Homo sapiens, UniProt P08912); also: in other assays of this panel Not Active means under 50% inhibition at 10 µM
Sequence (P08912 whole entry): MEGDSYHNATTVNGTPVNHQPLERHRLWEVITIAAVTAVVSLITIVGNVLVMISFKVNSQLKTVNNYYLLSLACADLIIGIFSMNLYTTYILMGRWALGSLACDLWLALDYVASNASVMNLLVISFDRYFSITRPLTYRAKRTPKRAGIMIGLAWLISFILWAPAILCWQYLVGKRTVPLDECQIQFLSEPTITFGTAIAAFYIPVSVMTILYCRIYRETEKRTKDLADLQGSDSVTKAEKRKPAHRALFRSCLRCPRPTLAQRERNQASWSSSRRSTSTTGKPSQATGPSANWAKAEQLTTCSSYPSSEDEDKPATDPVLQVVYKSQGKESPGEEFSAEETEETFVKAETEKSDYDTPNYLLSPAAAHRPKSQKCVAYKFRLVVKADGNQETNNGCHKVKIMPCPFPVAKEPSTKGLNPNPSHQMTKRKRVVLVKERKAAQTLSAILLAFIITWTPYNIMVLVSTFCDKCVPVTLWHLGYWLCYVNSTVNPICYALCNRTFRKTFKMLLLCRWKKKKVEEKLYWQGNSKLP
Format: cell membranes, CHO-K1, Membrane
Conditions: cho-k1
Property: IC50

# Compound, Target or test system, IC50
data = [
    ("CC1Cc2ccccc2N1NC(=O)c1ccc(Cl)c(S(N)(=O)=O)c1 (stereo unspecified) [INDAPAMIDE]", "Muscarinic acetylcholine receptor M5 (Homo sapiens, UniProt P08912)", "Not Active"),
    ("Nc1nc2c(ncn2CCC(CO)CO)c(=O)[nH]1 [PENCICLOVIR]", "Muscarinic acetylcholine receptor M5 (Homo sapiens, UniProt P08912)", "Not Active"),
    ("C[C@](N)(Cc1ccc(O)c(O)c1)C(=O)O [METHYLDOPA]", "Muscarinic acetylcholine receptor M5 (Homo sapiens, UniProt P08912)", "Not Active"),
    ("CC(=O)O[C@@]12CO[C@@H]1C[C@H](O)[C@@]1(C)C(=O)[C@H](O)C3=C(C)[C@@H](OC(=O)[C@H](O)[C@@H](NC(=O)OC(C)(C)C)c4ccccc4)C[C@@](O)([C@@H](OC(=O)c4ccccc4)[C@H]21)C3(C)C.O.O.O [DOCETAXEL]", "Muscarinic acetylcholine receptor M5 (Homo sapiens, UniProt P08912)", "Not Active"),
]

Qu. Please look up its IC50: C[C@H]1O[C@@H](O[C@H]2[C@@H](O)C[C@H](O[C@H]3[C@@H](O)C[C@H](O[C@H]4CC[C@@]5(C)[C@H](CC[C@@H]6[C@@H]5C[C@@H](O)[C@]5(C)[C@@H](C7=CC(=O)OC7)CC[C@]65O)C4)O[C@@H]3C)O[C@@H]2C)C[C@H](O)[C@@H]1O [DIGOXIN]
Ans. Not Active

Qu. Please look up its IC50: O=c1ncn2nc(Sc3ccc(F)cc3F)ccc2c1-c1c(Cl)cccc1Cl [NEFLAMAPIMOD]
Ans. Not Active
